Catalogue of pIC50 readings, one per entry.
Target: CYP2C19 (Homo sapiens, UniProt P33261)
Construct: purchased Gentest
Sequence (P33261 whole entry): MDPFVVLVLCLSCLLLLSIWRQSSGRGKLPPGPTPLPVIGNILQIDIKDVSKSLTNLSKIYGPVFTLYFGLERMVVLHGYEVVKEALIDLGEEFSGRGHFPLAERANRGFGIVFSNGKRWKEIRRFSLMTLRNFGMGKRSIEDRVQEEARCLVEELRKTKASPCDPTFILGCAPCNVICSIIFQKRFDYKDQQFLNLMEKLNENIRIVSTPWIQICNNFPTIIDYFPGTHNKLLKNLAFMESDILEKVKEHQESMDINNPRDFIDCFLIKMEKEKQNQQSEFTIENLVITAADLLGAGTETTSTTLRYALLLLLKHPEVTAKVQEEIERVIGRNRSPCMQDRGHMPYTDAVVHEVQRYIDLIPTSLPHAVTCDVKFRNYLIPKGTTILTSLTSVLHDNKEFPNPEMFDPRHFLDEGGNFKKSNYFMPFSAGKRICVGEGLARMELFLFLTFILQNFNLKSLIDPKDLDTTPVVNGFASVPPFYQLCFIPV
Test: Inhibition of human cytochromes, fluorescent substrates
Type: in vitro ADME
Settings: isoenzyme (Gentest), 37° C.
Here pIC50 is given on a logarithmic scale as minus log10 of the concentration in mol/L.

Use the examples below as a reference point.
Given the compound CC[C@H](C)n1ncn(-c2ccc(N3CCN(c4ccc(OC[C@H]5CO[C@@](Cn6cncn6)(c6ccccn6)O5)cc4)CC3)cc2)c1=O (relative stereo) [Example 13] , what is its reported pIC50?
4.55

Same for CC[C@@H](C)n1ncn(-c2ccc(N3CCN(c4ccc(OC[C@H]5CO[C@@](Cn6cncn6)(c6ccccn6)O5)cc4)CC3)cc2)c1=O (relative stereo) [Example 16]
4.37

***
Given the compound CC[C@H](C)n1ncn(-c2ccc(N3CCN(c4ccc(OC[C@H]5CO[C@@](Cn6cncn6)(c6ccccn6)O5)cc4)CC3)cc2)c1=O (relative stereo) [Example 14] , what is its reported pIC50?
4.55

Same for CCC(C)n1ncn(-c2ccc(N3CCN(c4ccc(OCC5COC(Cn6cncn6)(c6ccc(Cl)cc6Cl)O5)cc4)CC3)cc2)c1=O (centres unmarked) [Itraconazole, reference compound]
6.70

Same for CC[C@@H](C)n1ncn(-c2ccc(N3CCN(c4ccc(OC[C@H]5CO[C@@](Cn6cncn6)(c6ccccn6)O5)cc4)CC3)cc2)c1=O (relative stereo) [Example 15]
4.59

---

Target: CYP2C9 (Homo sapiens)
Construct: purchased Gentest
Sequence (P11712 whole entry): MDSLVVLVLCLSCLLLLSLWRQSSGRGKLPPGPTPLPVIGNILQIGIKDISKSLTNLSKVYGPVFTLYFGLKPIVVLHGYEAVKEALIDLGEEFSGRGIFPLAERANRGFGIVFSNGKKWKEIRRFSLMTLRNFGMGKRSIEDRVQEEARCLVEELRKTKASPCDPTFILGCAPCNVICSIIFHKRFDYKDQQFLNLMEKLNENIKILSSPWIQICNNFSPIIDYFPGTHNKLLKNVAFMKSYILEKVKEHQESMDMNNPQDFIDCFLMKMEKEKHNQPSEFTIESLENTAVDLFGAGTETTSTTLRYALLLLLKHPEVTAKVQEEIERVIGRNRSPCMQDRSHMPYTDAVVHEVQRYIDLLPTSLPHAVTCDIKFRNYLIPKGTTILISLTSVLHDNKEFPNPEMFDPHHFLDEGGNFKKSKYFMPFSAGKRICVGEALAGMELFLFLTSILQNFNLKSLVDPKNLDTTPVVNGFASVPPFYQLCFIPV
Assay: Inhibition of human cytochromes, fluorescent substrates
Format: in vitro ADME
Conditions: isoenzyme (Gentest), 37° C.
Could you mark each record true if its IC50 falls strictly under 30 µM, and false if it equals or exceeds it?

Solved entries (count: 2):
Does the reported IC50 of CC[C@H](C)n1ncn(-c2ccc(N3CCN(c4ccc(OC[C@H]5CO[C@@](Cn6cncn6)(c6ccccn6)O5)cc4)CC3)cc2)c1=O (relative stereo) [Example 13] stay below 30 µM?
true

Same for CC[C@@H](C)n1ncn(-c2ccc(N3CCN(c4ccc(OC[C@H]5CO[C@@](Cn6cncn6)(c6ccccn6)O5)cc4)CC3)cc2)c1=O (relative stereo) [Example 16]
false

***
Does the reported IC50 of CC[C@@H](C)n1ncn(-c2ccc(N3CCN(c4ccc(OC[C@H]5CO[C@@](Cn6cncn6)(c6ccccn6)O5)cc4)CC3)cc2)c1=O (relative stereo) [Example 15] stay below 30 µM?
true

Same for CC[C@H](C)n1ncn(-c2ccc(N3CCN(c4ccc(OC[C@H]5CO[C@@](Cn6cncn6)(c6ccccn6)O5)cc4)CC3)cc2)c1=O (relative stereo) [Example 14]
false

Same for CCC(C)n1ncn(-c2ccc(N3CCN(c4ccc(OCC5COC(Cn6cncn6)(c6ccc(Cl)cc6Cl)O5)cc4)CC3)cc2)c1=O (centres unmarked) [Itraconazole, reference compound]
true

---

Molecular target: CYP3A4 (Homo sapiens)
Construct: purchased Gentest
Sequence (P08684 whole entry): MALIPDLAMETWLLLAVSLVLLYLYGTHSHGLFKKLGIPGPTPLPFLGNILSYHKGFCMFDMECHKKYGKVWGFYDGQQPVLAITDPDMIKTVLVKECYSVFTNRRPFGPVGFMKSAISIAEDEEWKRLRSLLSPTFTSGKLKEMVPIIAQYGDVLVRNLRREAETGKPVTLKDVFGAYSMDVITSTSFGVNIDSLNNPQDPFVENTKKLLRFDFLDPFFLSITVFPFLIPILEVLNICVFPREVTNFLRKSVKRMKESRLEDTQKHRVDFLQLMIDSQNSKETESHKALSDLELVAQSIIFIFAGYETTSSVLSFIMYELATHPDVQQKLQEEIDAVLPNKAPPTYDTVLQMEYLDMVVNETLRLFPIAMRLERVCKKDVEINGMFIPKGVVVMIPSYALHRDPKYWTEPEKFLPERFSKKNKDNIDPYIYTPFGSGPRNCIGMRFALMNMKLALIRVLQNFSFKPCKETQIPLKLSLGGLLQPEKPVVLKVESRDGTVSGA
Assay: Inhibition of human cytochromes, fluorescent substrates
Format: in vitro ADME
Conditions: isoenzyme (Gentest), 37° C.
Catalogue of IC50 readings, one per entry.
Report as a plain number; the unit nM is understood.

Use the examples below as a reference point.
Given the compound CC[C@H](C)n1ncn(-c2ccc(N3CCN(c4ccc(OC[C@H]5CO[C@@](Cn6cncn6)(c6ccccn6)O5)cc4)CC3)cc2)c1=O (relative stereo) [Example 13] , what is its reported IC50?
460

Same for CC[C@H](C)n1ncn(-c2ccc(N3CCN(c4ccc(OC[C@H]5CO[C@@](Cn6cncn6)(c6ccccn6)O5)cc4)CC3)cc2)c1=O (relative stereo) [Example 14]
190

***
Given the compound CC[C@@H](C)n1ncn(-c2ccc(N3CCN(c4ccc(OC[C@H]5CO[C@@](Cn6cncn6)(c6ccccn6)O5)cc4)CC3)cc2)c1=O (relative stereo) [Example 15] , what is its reported IC50?
410

Same for CC[C@@H](C)n1ncn(-c2ccc(N3CCN(c4ccc(OC[C@H]5CO[C@@](Cn6cncn6)(c6ccccn6)O5)cc4)CC3)cc2)c1=O (relative stereo) [Example 16]
290

---

Catalogue of IC50 (minimum concentration to bring about 50% inhibition) readings, one per entry.
Tested on: Aspergillus fumigatus
Test: Antifungal activity, liquid phase microdilution (NCCLS M27/M38-P)
Format: cell-based
Parameters: unit not given here
Conditions: Aspergillus fumigatus strain 99-2135
# answer = number (no unit)

Use the examples below as a reference point.
Given the molecule CC[C@H](C)n1ncn(-c2ccc(N3CCN(c4ccc(OC[C@H]5CO[C@@](Cn6cncn6)(c6ccccn6)O5)cc4)CC3)cc2)c1=O (relative stereo) [Example 14] , what is its reported IC50 (minimum concentration to bring about 50% inhibition)?
0.5

Same for CC[C@@H](C)n1ncn(-c2ccc(N3CCN(c4ccc(OC[C@H]5CO[C@@](Cn6cncn6)(c6ccccn6)O5)cc4)CC3)cc2)c1=O (relative stereo) [Example 15]
0.12

Same for CC[C@@H](C)n1ncn(-c2ccc(N3CCN(c4ccc(OC[C@H]5CO[C@@](Cn6cncn6)(c6ccccn6)O5)cc4)CC3)cc2)c1=O (relative stereo) [Example 16]
0.25

Note: attention shifts to another entry.
Given the molecule CC[C@H](C)n1ncn(-c2ccc(N3CCN(c4ccc(OC[C@H]5CO[C@@](Cn6cncn6)(c6ccccn6)O5)cc4)CC3)cc2)c1=O (relative stereo) [Example 13] , what is its reported IC50 (minimum concentration to bring about 50% inhibition)?
0.25

---

Biological target: CYP2D6 (Homo sapiens, UniProt P10635)
Construct: purchased Gentest
Sequence (P10635 whole entry): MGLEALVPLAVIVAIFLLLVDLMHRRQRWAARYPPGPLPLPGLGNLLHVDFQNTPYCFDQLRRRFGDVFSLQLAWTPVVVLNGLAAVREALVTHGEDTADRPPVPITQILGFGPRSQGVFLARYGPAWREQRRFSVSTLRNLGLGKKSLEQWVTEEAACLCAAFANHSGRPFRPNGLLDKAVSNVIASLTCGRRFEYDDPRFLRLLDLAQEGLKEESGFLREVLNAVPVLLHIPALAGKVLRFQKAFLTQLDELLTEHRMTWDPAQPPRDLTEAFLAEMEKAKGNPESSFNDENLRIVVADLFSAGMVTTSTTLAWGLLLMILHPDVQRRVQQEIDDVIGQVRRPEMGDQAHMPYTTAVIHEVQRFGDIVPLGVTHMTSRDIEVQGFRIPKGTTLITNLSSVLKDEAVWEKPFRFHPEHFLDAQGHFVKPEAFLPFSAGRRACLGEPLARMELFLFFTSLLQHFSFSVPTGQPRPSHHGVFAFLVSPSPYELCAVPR
Test: Inhibition of human cytochromes, fluorescent substrates
Type: in vitro ADME
Settings: isoenzyme (Gentest), 37° C.
pIC50: −log10 of the molar value.
Value Type: pIC50

Use the examples below as a reference point.
Given the compound CC[C@@H](C)n1ncn(-c2ccc(N3CCN(c4ccc(OC[C@H]5CO[C@@](Cn6cncn6)(c6ccccn6)O5)cc4)CC3)cc2)c1=O (relative stereo) [Example 16] , what is its reported pIC50?
< 4.00

Same for CC[C@@H](C)n1ncn(-c2ccc(N3CCN(c4ccc(OC[C@H]5CO[C@@](Cn6cncn6)(c6ccccn6)O5)cc4)CC3)cc2)c1=O (relative stereo) [Example 15]
4.08

Same for CCC(C)n1ncn(-c2ccc(N3CCN(c4ccc(OCC5COC(Cn6cncn6)(c6ccc(Cl)cc6Cl)O5)cc4)CC3)cc2)c1=O (centres unmarked) [Itraconazole, reference compound]
< 4.00

Same for CC[C@H](C)n1ncn(-c2ccc(N3CCN(c4ccc(OC[C@H]5CO[C@@](Cn6cncn6)(c6ccccn6)O5)cc4)CC3)cc2)c1=O (relative stereo) [Example 13]
< 4.00

Note: attention shifts to another entry.
Given the compound CC[C@H](C)n1ncn(-c2ccc(N3CCN(c4ccc(OC[C@H]5CO[C@@](Cn6cncn6)(c6ccccn6)O5)cc4)CC3)cc2)c1=O (relative stereo) [Example 14] , what is its reported pIC50?
< 4.00
